Test system: Plasmodium falciparum
Assay: GSK_TCMDC: Inhibition of Plasmodium falciparum Dd2 in whole red blood cells, using parasite LDH activity as an index of growth. Test compounds present at 2uM
Format: functional
Outcome: criterion met for Inhibition of at least 70%; criterion not met for anything lower.

Check out these entries, answers already filled in.
>>> df
                                   compound   class_assignment
0  CCCOc1ccc2ccccc2c1CNCCCCCCNCc1c(OCCC)ccc2ccccc12.CS(=O)(=O)O      criterion met
1  Cc1ccc(CN2CCCN(Cc3cccc(C(=O)Nc4ccc(C(C)(C)C)cc4)c3)CC2)s1.O=C(O)C(F)(F)F  criterion not met
2  CC(N)(Cc1ccc(O)cc1)c1nnn[nH]1 (stereo not given)  criterion not met

Shifting focus to the compound that follows.
Exam item: Entry Nc1c(Cl)cc(C(O)CNCCCCCOCCCc2ccc3ncccc3c2)cc1Cl.O=C(O)/C=C/C(=O)O (stereo not given) : is its Inhibition no less than 70%?
Marked response: criterion met
